target: HLA-A*02:03; assay: IEDB peptide-MHC binding, purified MHC/direct/fluorescence; filed as Kd, often an IC50 or EC50 that approximates it; bounds were set here for any values at or beyond the usual limits of such assays; details: source organism: Vibrio cholerae O139
propertyLabel: Kd

Query block: Returns the measured Kd for the input sequence. Input: EKDSNHNVL
Result block: ≥ 20 µM

====

molecular target: HLA-A*32:01; test: IEDB peptide-MHC binding, purified MHC/competitive/radioactivity; filed as Kd, often an IC50 or EC50 that approximates it; bounds were set here for any values at or beyond the usual limits of such assays; conditions: source organism: Dengue virus 3 Martinique/1243/1999
Exercise: state measured pKd for each of the sequences provided.
Numbers only, as −log10 of the molar value.

orderedResidues: SKGWHDWQQV
pKd: 5.85

# evaluate next
Query block: Returns the measured pKd for the input sequence. Input: RVMGITAEW
Result block: 7.44

====

target: HLA-B*39:01; assay: IEDB peptide-MHC binding, purified MHC/competitive/fluorescence; filed as Kd, often an IC50 or EC50 that approximates it; bounds were set here for any values at or beyond the usual limits of such assays; conditions: source organism: Vaccinia virus WR
propertyLabel: Kd (nM)
Numbers only, in nM.

Query block: Returns the measured Kd for the input sequence. Input: NYFNRMFHF
Result block: 3000

====

Exercise: state measured pKd for each of the sequences provided.
molecular target: HLA-A*68:02; assay: IEDB peptide-MHC binding, purified MHC/competitive/fluorescence; filed as Kd, often an IC50 or EC50 that approximates it; bounds were set here for any values at or beyond the usual limits of such assays; conditions: source organism: Human immunodeficiency virus 1
Answers are plain numbers, as −log10 of the molar value.

orderedResidues: DIKDTKEAL
measuredTarget: HLA-A*68:02
pKd: 5.77

# evaluate next
Query block: Could you share what pKd was measured for EELKSLFNTI , tested on HLA-A*68:02?
Result block: 5.93

====

Exercise: state measured pKd for each of the sequences provided.
target: HLA-A*26:01; test: IEDB peptide-MHC binding, purified MHC/direct/fluorescence; filed as Kd, often an IC50 or EC50 that approximates it; bounds were set here for any values at or beyond the usual limits of such assays; conditions: source organism: Cryptosporidium parvum Iowa II
pKd: −log10 of the molar value.

orderedResidues: RKWGLDFCY
pKd: ≤ 4.70

# evaluate next
Query block: Returns the measured pKd for the input sequence. Input: YLAKLFLDH
Result block: ≤ 4.70

====

target: HLA-B*18:01; assay: IEDB peptide-MHC binding, purified MHC/competitive/fluorescence; filed as Kd, often an IC50 or EC50 that approximates it; bounds were set here for any values at or beyond the usual limits of such assays; settings: source organism: Influenza A virus (A/ruddy turnstone/NJ/60/1985(N9))
propertyLabel: Kd

Query block: Returns the measured Kd for the input sequence. Input: DWSGYSGSF
Result block: ≥ 20 µM

====

target: HLA-A*02:03; experiment: IEDB peptide-MHC binding, purified MHC/direct/fluorescence; filed as Kd, often an IC50 or EC50 that approximates it; bounds were set here for any values at or beyond the usual limits of such assays; conditions: source organism: Vibrio parahaemolyticus RIMD 2210633
pKd: −log10 of the molar value.
propertyLabel: pKd

Query block: Returns the measured pKd for the input sequence. Input: SMNYPNSYK
Result block: ≤ 4.70
